tested on: Wolbachia pipientis; assay: Anti-Wolbachia Cell-Based Screen; assay type: functional; parameters: scale not given: in the data most compounds retested in dose-response had high values; conditions: 5 µM
About 13,000 (27%) of roughly 48,000 compounds showed an effect of 50% or more. This is one part of the list.
QUANTITY_MEASURED: Percent Effect (%)
Numbers only, in %.

Solved entries (count: 3):
COc1cc(C)nc(N2CCN(C(=O)CN(C)C3CC3)CC2)n1
-6.068
O=C(Nc1ccccc1OCCc1ccccn1)N1CCOCC(O)C1 (stereo not given)
83.92
CCn1cc(CN2CCCN(C(=O)c3cc(C)no3)CC2)cn1
149.7

// for each compound in input: emit Percent Effect
1. COCCNC(=O)c1cc(OC)ccc1Br
2. Cc1ccc(C)c(OCc2nnc(SCC3CCCN(C)C3)o2)c1 (stereo not given)
3. CS(=O)(=O)N1CCc2ccc(=O)n(CC3CC3)c2CC1
4. Cc1ccccc1CSc1nc(N)cc(N2CCOC(C(N)=O)C2)n1 (stereo not given)
5. CCNC(=O)[C@@H]1C[C@H](NC(=O)c2ccccc2C#N)CN1CCCSC
6. CN(C)c1cccc(C2CCN(C3COCC3O)CC2)n1 (stereo not given)
7. COc1ccc(OC)c(Sc2ncccc2C(=O)NCC2CC2)c1

Reply |
[8.343, -6.886, -5, 17.62, -7.827, 145.5, 167.1]

// for each compound in input: emit Percent Effect
1. N[C@H]1CN(C(=O)c2ccc(Cl)cc2O)C[C@@H]1C1CC1
2. CS(=O)(=O)N1CCc2ccc(=O)n(CCN3CCCC3)c2CC1.O=C(O)C(F)(F)F
3. COc1ccc(Oc2ncccc2NC(=O)N2CCOCC2)cc1
4. Cn1cc(C(=O)N2CCOc3cc(F)ccc32)ccc1=O
5. CCNC(=O)[C@@H]1C[C@@H](NC(=O)Cc2ccncc2)CN1Cc1ccsc1
6. CC(C)N1CCC(N2CCCC(C(=O)NCC3(O)CCCCC3)C2)CC1 (stereo not given)

Reply |
-2.238
96.15
2.048
-3.875
-6.435
0.6612

// for each compound in input: emit Percent Effect
1. CCNC(=O)[C@@H]1C[C@@H](NC(=O)c2ccc(C)cc2O)CN1CCCSC
2. O=C(Nc1ccccc1OCCc1ccccn1)N1CCOCC1
3. CC(C)c1cc(C(=O)N2C[C@@H](C)[C@](O)(C3CC3)C2)[nH]n1
4. O=C(CNC(=O)c1ccoc1)NC(c1ccc(F)cc1)C(F)(F)F (stereo not given)
5. C1CN(c2nc(C3CC3)no2)CCN(C2CCOCC2)C1
6. CSCCC(C)(O)CNC(=O)c1ccsc1 (stereo not given)
7. C=C(C)COc1ccccc1NC(=O)N1CCOCC(CO)C1 (stereo not given)

Reply |
82.24
129.1
9.432
0.03163
3.883
-0.07665
-7.017

// for each compound in input: emit Percent Effect
1. CN(Cc1nncn1C)c1nccc(C2CCCC2)n1
2. CCN(CC)C(=O)[C@@H]1C[C@H](NC(=O)c2cccn2C(C)C)CN1C
3. CCOc1cc(CNC(=O)N2CCC(Cc3cnn(C)c3)C2)ccn1 (stereo not given)
4. CCOC(=O)CNC(=O)c1cccnc1Sc1cc(OC)ccc1OC
5. CN(C)c1ccnc(N2CCC(NCCOc3ccccc3)CC2)n1
6. CCc1nc(CN2CCCN(C(=O)c3cccn3C)CC2)cs1
7. O=C(Nc1ccc2ncsc2c1)N1CCCN([C@H]2COC[C@@H]2O)CC1
8. Cc1cc(C(=O)N2CCN(Cn3cc(Cl)cn3)CC2)on1

Reply |
1. -0.6799
2. 0.9655
3. 0.1866
4. 162.1
5. -8.661
6. -9.878
7. -6.319
8. 0.1609
